Form field: IC50 (one value per entry).
System Name: Integrin alpha-IIb/beta-3 (Homo sapiens, UniProt P05106+P08514)
Sequence (P05106 27-788 limits assumed): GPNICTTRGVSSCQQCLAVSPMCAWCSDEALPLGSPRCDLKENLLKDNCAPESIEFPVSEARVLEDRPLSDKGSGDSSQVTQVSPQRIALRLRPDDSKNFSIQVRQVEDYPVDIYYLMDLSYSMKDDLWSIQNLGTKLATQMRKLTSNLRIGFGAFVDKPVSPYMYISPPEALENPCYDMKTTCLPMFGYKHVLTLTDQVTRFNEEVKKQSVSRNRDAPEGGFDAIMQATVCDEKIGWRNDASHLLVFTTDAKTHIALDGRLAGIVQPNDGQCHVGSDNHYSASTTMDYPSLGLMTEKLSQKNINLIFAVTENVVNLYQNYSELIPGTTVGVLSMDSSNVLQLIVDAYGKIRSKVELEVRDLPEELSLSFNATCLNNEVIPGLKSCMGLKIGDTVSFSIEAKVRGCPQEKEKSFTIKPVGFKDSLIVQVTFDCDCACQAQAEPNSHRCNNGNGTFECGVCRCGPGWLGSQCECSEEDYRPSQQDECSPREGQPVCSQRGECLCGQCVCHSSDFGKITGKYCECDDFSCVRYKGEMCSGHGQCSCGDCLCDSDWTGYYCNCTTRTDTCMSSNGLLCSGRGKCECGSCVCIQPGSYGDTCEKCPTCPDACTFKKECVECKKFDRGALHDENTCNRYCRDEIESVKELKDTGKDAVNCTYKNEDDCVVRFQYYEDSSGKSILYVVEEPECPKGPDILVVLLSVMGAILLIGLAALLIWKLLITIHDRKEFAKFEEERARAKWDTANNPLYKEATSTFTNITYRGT
Sequence (P08514 32-887 limits assumed): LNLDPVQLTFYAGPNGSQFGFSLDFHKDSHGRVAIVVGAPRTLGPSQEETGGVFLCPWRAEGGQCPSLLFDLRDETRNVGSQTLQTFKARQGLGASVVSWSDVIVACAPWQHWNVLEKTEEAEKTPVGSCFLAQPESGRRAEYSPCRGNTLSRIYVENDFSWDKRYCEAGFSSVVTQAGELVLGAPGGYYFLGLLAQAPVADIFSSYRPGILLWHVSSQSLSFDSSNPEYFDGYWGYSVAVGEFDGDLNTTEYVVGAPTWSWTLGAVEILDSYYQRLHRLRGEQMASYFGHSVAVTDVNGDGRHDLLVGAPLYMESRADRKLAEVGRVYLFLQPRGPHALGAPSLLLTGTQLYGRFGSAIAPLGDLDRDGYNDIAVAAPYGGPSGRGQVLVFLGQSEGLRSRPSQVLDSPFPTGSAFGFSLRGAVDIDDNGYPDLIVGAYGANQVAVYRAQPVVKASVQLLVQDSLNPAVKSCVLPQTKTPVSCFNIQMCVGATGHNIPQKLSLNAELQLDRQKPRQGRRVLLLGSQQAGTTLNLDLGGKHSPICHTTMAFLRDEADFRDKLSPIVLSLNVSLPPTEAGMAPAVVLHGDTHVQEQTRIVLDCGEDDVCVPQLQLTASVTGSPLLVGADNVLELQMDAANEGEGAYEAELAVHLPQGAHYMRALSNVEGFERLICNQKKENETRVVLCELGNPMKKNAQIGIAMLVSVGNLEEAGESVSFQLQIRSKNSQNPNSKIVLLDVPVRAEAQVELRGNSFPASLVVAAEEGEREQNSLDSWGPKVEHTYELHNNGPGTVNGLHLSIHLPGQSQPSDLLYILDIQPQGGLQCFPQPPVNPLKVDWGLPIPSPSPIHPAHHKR
Sequence (P08514 891-1039 limits assumed): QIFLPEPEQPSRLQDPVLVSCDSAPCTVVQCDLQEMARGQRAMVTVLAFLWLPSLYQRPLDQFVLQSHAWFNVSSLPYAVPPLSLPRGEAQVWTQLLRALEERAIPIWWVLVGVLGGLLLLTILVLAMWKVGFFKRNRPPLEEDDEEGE
Measurement Notes: Inhibitory activity against alpha IIb beta 3 integrin

| Compound | Recorded Result |
| --- | --- |
| NCCCC[C@H](NC(=O)[C@@H]1CCCN1C(=O)[C@H](CO)NC(=O)[C@H](CC(=O)O)NC(=O)CNC(=O)[C@H](CCCN=C(N)N)NC(=O)CN)C(=O)O | > 10 µM |
| NC(N)=Nc1cccc(C(=O)NNC(=O)NC(CC(=O)O)c2cccc3ccccc23)c1 (stereo not given) | > 10 µM |
| N=C(N)Nc1cccc(C(=O)NNC(=O)CC(CC(=O)O)c2ccc(Br)cc2)c1 (stereo not given) | > 1 µM |

## Input Request the reported IC50 associated with Cc1ccnc(NCCCCC(=O)NNC(=O)CC(CC(=O)O)c2ccccc2)c1 (stereo not given)
## Output > 10 µM

## Input Request the reported IC50 associated with CC(=N)Nc1cccc(C(=O)NNC(=O)CC(CC(=O)O)c2ccc(F)cc2)c1 (stereo not given)
## Output > 1 µM

###

System Name: Integrin alpha-V/beta-3 and alpha-IIb/beta 3 (Homo sapiens) (UniProt P05106+P06756+P08514)
Measurement Notes: Selectivity designates the quotient of affinities to integrins alpha v beta-3 and alpha IIb beta3
Assay type: protein assay
Where a SMILES comes first, the peptide text is derived from it. [ ]: non-standard residue; d: D form. NMeF = CN[C@@H](Cc1ccccc1)C(=O)O; azaGly = NNC(=O)O
Measured Parameter: Selectivity

| Compound | System Name | Selectivity |
| --- | --- | --- |
| Cc1ccnc(NCCCCC(=O)NNC(=O)CC(CC(=O)O)c2ccc(-c3ccccc3)cc2)c1 (stereo unspecified) | Integrin alpha-V/beta-3 and alpha-IIb/beta 3 (Homo sapiens) (UniProt P05106+P06756+P08514) | 1000 |

I = NCCCC[C@H](NC(=O)[C@@H]1CCCN1C(=O)[C@H](CO)NC(=O)[C@H](CC(=O)O)NC(=O)CNC(=O)[C@H](CCCN=C(N)N)NC(=O)CN)C(=O)O
II = CC(C)[C@@H]1NC(=O)[C@H](CCCN=C(N)N)NC(=O)NNC(=O)[C@H](CC(=O)O)NC(=O)[C@H](Cc2ccccc2)N(C)C1=O (cyclo(D[azaGly]RV[NMeF]))
III = CC(C)[C@@H]1NC(=O)[C@H](CCCN=C(N)N)NC(=O)CNC(=O)[C@H](CC(=O)O)NC(=O)[C@H](Cc2ccccc2)NC1=O (cyclo(DGRVF))
IV = CC(C)[C@@H]1NC(=O)[C@H](CCCN=C(N)N)NC(=O)CNC(=O)[C@H](CC(=O)O)NC(=O)[C@H](Cc2ccccc2)N(C)C1=O (cyclo(DGRV[NMeF]))
## Input List items by Selectivity in falling order. // list labels; follow requested order
## Output IV, III, II, I
(IV: 1460, III: 415, II: 270, I: 8)

###

System Name: Integrin alpha-V/beta-3 (Homo sapiens, UniProt P05106+P06756)
Sequence (P06756 31-889 limits assumed, one chain of several): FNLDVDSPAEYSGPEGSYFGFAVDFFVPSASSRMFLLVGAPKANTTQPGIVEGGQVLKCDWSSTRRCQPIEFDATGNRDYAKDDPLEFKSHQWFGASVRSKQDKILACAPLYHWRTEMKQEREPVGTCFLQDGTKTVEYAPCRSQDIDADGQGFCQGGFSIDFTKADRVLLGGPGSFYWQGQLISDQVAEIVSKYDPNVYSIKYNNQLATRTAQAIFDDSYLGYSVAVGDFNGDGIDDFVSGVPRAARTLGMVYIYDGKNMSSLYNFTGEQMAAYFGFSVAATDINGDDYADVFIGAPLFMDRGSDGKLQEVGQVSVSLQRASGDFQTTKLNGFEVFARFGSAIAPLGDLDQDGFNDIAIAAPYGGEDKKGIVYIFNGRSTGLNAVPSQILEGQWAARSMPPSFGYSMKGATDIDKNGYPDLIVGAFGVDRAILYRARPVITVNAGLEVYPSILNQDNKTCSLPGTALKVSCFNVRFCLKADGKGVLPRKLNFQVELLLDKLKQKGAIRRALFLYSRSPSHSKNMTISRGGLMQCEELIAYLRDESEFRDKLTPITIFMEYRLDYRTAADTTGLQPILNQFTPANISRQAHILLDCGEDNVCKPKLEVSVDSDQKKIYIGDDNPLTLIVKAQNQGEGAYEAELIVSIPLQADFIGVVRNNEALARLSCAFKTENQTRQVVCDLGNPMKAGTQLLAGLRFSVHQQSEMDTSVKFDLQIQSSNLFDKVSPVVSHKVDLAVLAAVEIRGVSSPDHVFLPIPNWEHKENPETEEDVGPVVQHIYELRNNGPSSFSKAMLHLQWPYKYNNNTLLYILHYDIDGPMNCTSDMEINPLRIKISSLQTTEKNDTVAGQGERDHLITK
Sequence (P06756 891-1048 limits assumed, one chain of several): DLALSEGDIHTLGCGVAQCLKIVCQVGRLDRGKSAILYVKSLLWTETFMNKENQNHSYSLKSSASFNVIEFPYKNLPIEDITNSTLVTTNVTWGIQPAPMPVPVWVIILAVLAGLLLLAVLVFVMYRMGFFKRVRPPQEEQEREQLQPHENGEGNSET
Measurement Notes: Inhibitory activity against vitronectin receptor (alpha V beta 3)
pIC50: −log10 of the molar value.
Measured Parameter: pIC50

# count of solved cases: 3
| Compound | Recorded Result |
| --- | --- |
| N=C(N)Nc1cccc(C(=O)NNC(=O)NC(CC(=O)O)c2ccccc2)c1 (stereo not given) | 9.10 |
| Cc1ccnc(NCCCCC(=O)NNC(=O)NC(CC(=O)O)c2cc(Cl)cc(Cl)c2)c1 (stereo not given) | 7.10 |
| CC(N)=Nc1cccc(C(=O)NNC(=O)CC(CC(=O)O)c2ccc(Br)cc2)c1 (stereo not given) | 7.40 |

A = CC(=N)Nc1cccc(C(=O)NNC(=O)CC(CC(=O)O)c2ccccc2)c1 (stereo not given)
B = CC(=N)Nc1cccc(C(=O)NNC(=O)CC(CC(=O)O)c2cc(Cl)cc(Cl)c2)c1 (stereo not given)
C = Cc1ccnc(NCCCCC(=O)NNC(=O)NC(CC(=O)O)c2cccc3ccccc23)c1 (stereo not given)
D = N=C(N)Nc1cccc(C(=O)NNC(=O)NC(CC(=O)O)c2ccc(Br)cc2)c1 (stereo not given)
E = Cc1ccnc(NCCCCC(=O)NNC(=O)NC(CC(=O)O)c2ccc(Cl)cc2)c1 (stereo not given)
## Input List items by pIC50 in falling order. // list labels; follow requested order
## Output E, D, B, A, C
(E: 9.52, D: 9.00, B: 8.22, A: 7.64, C: 6.85)

a = COc1ccc(C(CC(=O)O)NC(=O)NNC(=O)c2cccc(N=C(N)N)c2)cc1 (stereo not given)
b = Cc1ccnc(NCCCCC(=O)NNC(=O)CC(CC(=O)O)c2ccc(F)cc2)c1 (stereo not given)
## Input Looking at recorded values for pIC50, does a or b come in lower? Write the label of whichever entry you select.
## Output b
(b: 7.46, a: 9.05)

###

System Name: Integrin alpha-V/beta-3 (Homo sapiens, UniProt P05106+P06756)
Measurement Notes: Inhibitory activity against vitronectin receptor (alpha V beta 3)
Measured Parameter: IC50 (µM)

| Compound | Uom | IC50 |
| --- | --- | --- |
| Cc1ccnc(NCCCCC(=O)NNC(=O)NC(CC(=O)O)c2ccc(Br)cc2)c1 (stereo not given) | µM | 0.007 |

P = Cc1ccnc(NCCCCC(=O)NNC(=O)CC(CC(=O)O)c2ccc(Cl)cc2)c1 (stereo not given)
Q = Cc1ccnc(NCCCCC(=O)NNC(=O)CC(CC(=O)O)c2ccccc2)c1 (stereo not given)
R = NC(=O)C(CC(=O)O)NC(=O)NNC(=O)c1cccc(N=C(N)N)c1 (stereo not given)
S = Cc1ccnc(NCCCCC(=O)NNC(=O)NC(CC(=O)O)c2ccc(F)cc2)c1 (stereo not given)
## Input List items by IC50 in falling order. // list labels; follow requested order
## Output R, S, P, Q
(R: 0.15 µM, S: 0.048 µM, P: 0.015 µM, Q: 0.007 µM)

###

Measurement Notes: Partition coefficient (logP)
Assay type: physicochemical
Condition Summary: octanol/water
Measured Parameter: logP

| Compound | logP |
| --- | --- |
| N=C(N)Nc1cccc(C(=O)NNC(=O)NC(CC(=O)O)c2ccc(Br)cc2)c1 (stereo not given) | 1.53 |

P = N=C(N)Nc1cccc(C(=O)NNC(=O)CC(CC(=O)O)c2ccc(Br)cc2)c1 (stereo not given)
Q = Cc1ccnc(NCCCCC(=O)NNC(=O)NCCC(=O)O)c1
## Input Looking at recorded values for logP, does P or Q come in lower? Write the label of whichever entry you select.
## Output Q
(Q: -0.07, P: 1.95)

a = Cc1ccnc(NCCCCC(=O)NNC(=O)CC(CC(=O)O)c2ccc(Cl)cc2)c1 (stereo not given)
b = COc1ccc(C(CC(=O)O)NC(=O)NNC(=O)CCCCNc2cc(C)ccn2)cc1 (stereo not given)
## Input For this pair, a and b , which shows a numerically higher logP? Write the label of whichever entry you select.
## Output a
(a: 2.63, b: 1.52)

###

System Name: Integrin alpha-V/beta-3 (Homo sapiens, UniProt P05106+P06756)
Measurement Notes: Inhibitory activity against vitronectin receptor (alpha V beta 3)
pIC50: −log10 of the molar value.
Measured Parameter: pIC50

P = O=C(O)CC(CC(=O)NNC(=O)c1cccc(Nc2ccccn2)c1)c1cc(Cl)cc(Cl)c1 (centres undefined)
Q = NCCCC[C@H](NC(=O)[C@@H]1CCCN1C(=O)[C@H](CO)NC(=O)[C@H](CC(=O)O)NC(=O)CNC(=O)[C@H](CCCN=C(N)N)NC(=O)CN)C(=O)O
R = COc1ccc(C(CC(=O)O)NC(=O)NNC(=O)CCCCNc2cc(C)ccn2)cc1 (centres undefined)
S = N=C(N)Nc1cccc(C(=O)NNC(=O)NC(CC(=O)O)c2ccc(Cl)cc2)c1 (centres undefined)
## Input Using measured pIC50, arrange the compounds from above in descending sequence. // list labels; follow requested order
## Output S, R, P, Q

###

System Name: Integrin alpha-IIb/beta-3 (Homo sapiens, UniProt P05106+P08514)
Measurement Notes: Inhibitory activity against alpha IIb beta 3 integrin
Measured Parameter: IC50 (µM)

| Compound | System Name | IC50, µM |
| --- | --- | --- |
| CC(=N)Nc1cccc(C(=O)NNC(=O)CC(CC(=O)O)c2ccc(Cl)cc2)c1 (stereo not given) | Integrin alpha-IIb/beta-3 (Homo sapiens, UniProt P05106+P08514) | 8 |
| Cc1ccnc(NCCCCC(=O)NNC(=O)NC(CC(=O)O)c2ccc(Cl)cc2)c1 (stereo not given) | Integrin alpha-IIb/beta-3 (Homo sapiens, UniProt P05106+P08514) | 7 |
| Cc1ccnc(NCCCCC(=O)NNC(=O)CC(CC(=O)O)c2ccc(Br)cc2)c1 (stereo not given) | Integrin alpha-IIb/beta-3 (Homo sapiens, UniProt P05106+P08514) | 9 |
